meta.source: ChEMBL document CHEMBL2390877

Experiment: Inhibition of rabbit skeletal muscle sarco/endoplasmic reticulum calcium ATPase assessed as inhibition of ATP hydrolysis by spectrophotometric analysis
Design: species or system Oryctolagus cuniculus
Settings: read-out: IC50
Measured Attribute: log10 of IC50 (log10 of the value in µM)

Smiles Representation | Reported Value
Oc1c(Cl)cc(Cl)cc1Cc1cc(Cl)cc(Cl)c1O | 1.49
CC(C)(c1ccc(O)c(-c2ccccc2)c1)c1ccc(O)c(-c2ccccc2)c1 | 1.96
CC(C)(c1ccc(O)c(C2CCCCC2)c1)c1ccc(O)c(C2CCCCC2)c1 | 1.97
CC(C)(C)c1cc(Cc2cc(C(C)(C)C)c(O)c(C(C)(C)C)c2)cc(C(C)(C)C)c1O | 1.20
Oc1c(F)cc(C(c2cc(F)c(O)c(F)c2)(C(F)(F)F)C(F)(F)F)cc1F | 0.45
Oc1c(Cl)cc(Cl)c(Cl)c1Cc1c(O)c(Cl)cc(Cl)c1Cl | 0.60
Cc1cc(C(C)(C)c2ccc(O)c(C)c2)ccc1O | 1.38
CC(C)(c1cc(Br)c(O)c(Br)c1)c1cc(Br)c(O)c(Br)c1 | 0.67
O=C(c1ccc(O)cc1)c1ccc(O)cc1 | 2.30
Oc1ccc(C2(c3ccc(O)cc3)CCCCC2)cc1 | 1.43
Cc1cc(C(C)(C)c2cc(C)c(O)c(C)c2)cc(C)c1O | 0.41
CC(C)c1cc(C(C)(C)c2ccc(O)c(C(C)C)c2)ccc1O | 0.53
CC(CCC(=O)O)(c1cc(Cl)c(O)c(Cl)c1)c1cc(Cl)c(O)c(Cl)c1 | 1.40
Cc1ccc(O)c(Cc2cc(C)ccc2O)c1 | 2.48
CC(C)(c1cc(Cl)c(O)c(Cl)c1)c1cc(Cl)c(O)c(Cl)c1 | 0.74
CC(C)(c1ccc(O)cc1)c1ccc(O)cc1 | 2.15
CC(c1ccc(O)cc1)c1ccc(O)cc1 | 1.95
C=CCc1cc(C(C)(C)c2ccc(O)c(CC=C)c2)ccc1O | 0.34
